Each recorded value in this set is attributed to ChEMBL document CHEMBL1156829.

Please provide measured CC50 for the entries that follow.
Test: NOVARTIS: Cytotoxicity against human hepatocellular carcinoma cell line (Huh7)
Format: toxicity, cell-based, Huh-7
Conditions: Huh7 cells (hepatocellular carcinoma cell line)

query: Using the record for CCN(CC)CCCC(C)NCc1ccc(OCc2ccccc2)c(OC)c1 (stereo not given) , report its CC50.
result: > 10 µM

query: Using the record for `CCN1CCN(Cc2ccc(N(CC)CC)cc2)CC1` , report its CC50.
result: > 100 µM

query: Using the record for `O=C(Nc1ccc(Oc2cccnc2)cc1)C1CCN(Cc2cc3ccccc3o2)CC1` , report its CC50.
result: > 100 µM

query: Using the record for COc1ccc(NC(=O)CCCCCn2c(SCC(=O)NCC3CCCO3)nc3ccsc3c2=O)cc1 (stereo not given) , report its CC50.
result: > 10 µM

query: Using the record for `CC(C)(C)CC(C)(C)Nc1c(-c2ccccc2OC(=O)C2CCC2)nc2ccccn12` , report its CC50.
result: > 10 µM

====

Please provide measured CC50 for the entries that follow.
Test: NOVARTIS: Cytotoxicity against human hepatocellular carcinoma cell line (Huh7)
Assay type: toxicity, cell-based, Huh-7
Details: Huh7 cells (hepatocellular carcinoma cell line)

query: Using the record for `c1ccc(C[C@H]2CN(c3ccccc3)CCN2CCNCCOc2ccccc2)cc1` , report its CC50.
result: > 5.32 µM

query: Using the record for `CCCN1CCC(N2C[C@@H](NCc3ccc(OCc4ccccc4)cc3)C[C@H]2C(=O)NCCc2ccc3c(c2)OCO3)CC1` , report its CC50.
result: 3.56 µM

query: Using the record for `Cc1ccc(Cn2c(N3CCC(C(=O)NCc4cccs4)CC3)nc3ccccc32)cc1` , report its CC50.
result: > 100 µM

query: Using the record for COC(=O)C1=C(C)NC2=C(C(=O)CC(c3ccccc3)C2)C1c1ccc(Cl)cc1 (stereo not given) , report its CC50.
result: > 100 µM

query: Using the record for `COc1cccc(C(=O)N(C)CCCNc2ccnc3cc(Cl)ccc23)c1` , report its CC50.
result: 5.93 µM

query: Using the record for `c1ccc2c(NC3CCCC3)nc(Nc3ccc4c(c3)OCO4)nc2c1` , report its CC50.
result: 12.8 µM

query: Using the record for `CCOC(=O)c1c(S(=O)(=O)Nc2ccc(C(C)(C)C)cc2)c(-c2ccccc2)n(-c2ccccc2)c1C` , report its CC50.
result: > 100 µM

query: Using the record for `CCOC(=O)c1c(CNc2ccncc2)n(C)c2cc(Br)c(OC(C)=O)cc12` , report its CC50.
result: > 100 µM

query: Using the record for COc1ccc2c(c1)C(C)(CC#N)C(=O)N2C (stereo not given) , report its CC50.
result: > 100 µM

query: Using the record for `Cc1cccc2c1[nH]c1nc(SCC(C)C)nnc12` , report its CC50.
result: > 100 µM

====

Test: NOVARTIS: Cytotoxicity against human hepatocellular carcinoma cell line (Huh7)
Format: toxicity, cell-based, Huh-7
Conditions: Huh7 cells (hepatocellular carcinoma cell line)
quantity-kind: CC50

query: Using the record for Cc1ccc(C(C(=O)NC(C)(C)C)N(C(=O)c2ccc(-c3ccccc3)[nH]2)c2ccc(C3CCCCC3)cc2)o1 (stereo not given) , report its CC50.
result: > 10 µM

query: Using the record for COc1ccc(CCN2CC(CNC(=O)Cc3cccnc3)C(c3ccc(N(C)C)cc3)C2)cc1OC (stereo not given) , report its CC50.
result: > 10 µM

query: Using the record for `Cc1ccc(Cn2c(C)c3cnn(CC(=O)O)c(=O)c3c2C)cc1` , report its CC50.
result: > 100 µM

query: Using the record for CCCCCCN(C(=O)c1ccc(C(C)(C)C)cc1)C(CC)c1nc2ccccc2c(=O)n1-c1ccccc1OC (stereo not given) , report its CC50.
result: > 10 µM

query: Using the record for `CN=C1S/C(=C\c2ccc(OCC(=O)O)c(OC)c2)C(=O)N1C` , report its CC50.
result: > 10 µM
